test system: CASKI; assay: Primary qHTS to identify gynecologic anti-cancer compounds using libraries of approved drugs and bioactive compounds (AID 1345084); settings: Gynecologic cancer cell panel viability, ATPlite luminescence, 48 h; series mostly up to 57.5 µM; further: nearly all actives have a fitted effect of over 55% in size
Inconclusive results are not listed. Activity calls are given as the source filed them. The call rests on the fitted dose curve; in most records, active means well fitted cell-killing curve with a large enough effect; inconclusive means small, poorly fitted or top-dose-only effect, or effect the other way; inactive means flat fitted curve, though single readings scatter.
Assign a class; possible classes are YES = active, NO = inactive

{"compound": "O=C(O)Cc1ccc2oc(-c3ccc(NC(=O)/C=C/c4ccc(Br)cc4)c(F)c3)nc2c1", "groupLabel": "NO"}
{"compound": "C=C1C(=O)OC2CC3(C)C(CC12)C(C)=CC(O)C3OC(C)=O (configuration not stated)", "groupLabel": "NO"}
{"compound": "COC(=O)C1=C2Nc3ccccc3C23CCN2CCCC(C(C)O)(C1)C23 (configuration not stated)", "groupLabel": "NO"}
{"compound": "CC(C)(C)NC(=O)[C@@H](c1cccnc1)N(C(=O)c1ccco1)c1ccc(C(C)(C)C)cc1", "groupLabel": "NO"}
{"compound": "Cc1cc(Cl)ccc1COc1ccnn1-c1cc(C(=O)O)ccn1", "groupLabel": "NO"}

Query string: Fill in: this test's call for CC(=O)O[C@H]1CC[C@H](C)[C@@]2(C)[C@H](OC(C)=O)c3c(C)coc3C(=O)[C@H]12 is ___
Result string: NO

Query string: Fill in: this test's call for O=[N+]([O-])c1cccc2[nH]c(CNc3nc(N4CCOCC4)nc4c3ncn4-c3ccsc3)nc12 is ___
Result string: YES

Query string: Fill in: this test's call for C=C(C(=O)O)C1CC(O)C2(C)CCCC(=C)C2C1 (configuration not stated) is ___
Result string: NO

Query string: Fill in: this test's call for CCCCCCOc1cc2c(cc1N(C)c1ncc(C(=O)O)cn1)C(C)(C)CCC2(C)C is ___
Result string: NO

Query string: Fill in: this test's call for COc1ccc([C@@]2(O)c3c(ccc(CC=C(C)C)c3O)NC(=O)[C@@H]2OC)cc1 is ___
Result string: NO

Query string: Fill in: this test's call for CC(O)/C=C/C1OC(=O)CC1Nc1ccc(C(=O)O)cc1 (configuration not stated) is ___
Result string: NO

Query string: Fill in: this test's call for NC(=O)c1cccc2cn(-c3ccc(C4CCCNC4)cc3)nc12 (configuration not stated) is ___
Result string: NO

Query string: Fill in: this test's call for COC(=O)/C=C/C12COC(C)(C)C1C(O)C(OC(C)=O)C1(C)C2CCC2(C)C(c3ccoc3)OC(=O)C3OC321 (configuration not stated) is ___
Result string: NO

Query string: Fill in: this test's call for CC1(C)C2CC(OC3OC(COC4OCC(O)(CO)C4O)C(O)C(O)C3O)C1(C)CC2O (configuration not stated) is ___
Result string: NO

Query string: Fill in: this test's call for CC(C)=CCC/C(C)=C/CCC1(C)Oc2c(c(O)cc3c2CN(C(CCC(=O)O)C(=O)O)C3=O)CC1O (configuration not stated) is ___
Result string: NO

Query string: Fill in: this test's call for c1cc(OCCCN2CCCCC2)ccc1CN1CCCCC1 is ___
Result string: NO

Query string: Fill in: this test's call for COC(=O)N1CCC(n2ncc3c(N4CCOCC4)nc(-c4ccc(NC(=O)Nc5ccc(CO)cc5)cc4)nc32)CC1 is ___
Result string: YES

Query string: Fill in: this test's call for CC(C)(C)CCN1C[C@@H]2C(CNC(=O)c3cc(Cl)cc(Cl)c3)[C@@H]2C1 (some centres not stated) is ___
Result string: NO

Query string: Fill in: this test's call for CC1(C)CCC(C)(C)c2cc(C3(c4ccc(C(=O)O)cc4)OCCO3)ccc21 is ___
Result string: NO

Query string: Fill in: this test's call for CCCCNc1ccc(-c2ccc(CN3CCOCC3)cn2)c(NC2CCC(O)CC2)c1 (configuration not stated) is ___
Result string: NO
